Biological target: T1, 4H2466-AA
T1 chain: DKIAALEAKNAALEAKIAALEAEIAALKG
Assay: two-hybrid library CCmax;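 further: natural log of median RNA to DNA barcode read ratio; higher means stronger binding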
Conditions: mean of both orientations
MEASURE NAME: interaction score

Please review the following examples before continuing.
{"BINDER": "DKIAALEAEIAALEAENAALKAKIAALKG [4H2078-AA]", "interaction score": -0.982}
{"BINDER": "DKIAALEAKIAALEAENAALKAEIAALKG [4H2330-AA]", "interaction score": -1.14}
{"BINDER": "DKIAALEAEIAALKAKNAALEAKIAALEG [4H2165-AA]", "interaction score": -1.49}
{"BINDER": "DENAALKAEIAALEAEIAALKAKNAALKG [4H1552-AA]", "interaction score": -1.4}
{"BINDER": "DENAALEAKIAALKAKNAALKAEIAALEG [4H1401-AA]", "interaction score": -1.54}
{"BINDER": "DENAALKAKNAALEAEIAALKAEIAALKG [4H1930-AA]", "interaction score": -1.3}
{"BINDER": "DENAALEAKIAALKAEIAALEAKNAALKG [4H1352-AA]", "interaction score": -1.34}
{"BINDER": "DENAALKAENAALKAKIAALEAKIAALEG [4H1765-AA]", "interaction score": -1.7}

Looking up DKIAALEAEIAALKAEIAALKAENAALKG [4H2124-AA] , I found its interaction score recorded as -1.16

Looking up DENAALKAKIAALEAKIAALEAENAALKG [4H1828-AA] , I found its interaction score recorded as -1.4

Looking up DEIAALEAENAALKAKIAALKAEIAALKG [4H234-AA] , I found its interaction score recorded as -0.379

Looking up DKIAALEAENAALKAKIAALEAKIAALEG [4H2277-AA] , I found its interaction score recorded as -1.07
